# run.description: single-dose pharmacokinetic evaluation in rats
# Format: in vivo, rat
# condition.context: rat, plasma, intravenous, 25 mg/kg, rats, 25 mg/kg, individual analysis 1-3; read-out: AUC
observed.property: AUC (ng·h/mL)
// note: answer is a bare numeric in ng·h/mL

Enquiry: Field request: AUC | item: O=C(Nc1nc(-c2ccc(O)c(O)c2)c(-c2ccccc2)s1)c1ccc(O)c(O)c1 [COH29]
Return: 3670

* * *

# System: human leukemia MOLT-4 cells
# run.description: MTT cytotoxicity assay
# Assay type: cell-based
# condition.context: 72 hours, Table 3; read-out: IC50 MOLT-4
observed.property: pIC50
// returns pIC50 (minus log10 of molar concentration), number only

Enquiry: Field request: pIC50 | item: NC(=O)NO [HU, hydroxyurea, reference compound]
Return: 3.78

* * *

# System: human leukemia REH cells
# run.description: MTT cytotoxicity assay
# Format: cell-based
# condition.context: 72 hours
observed.property: IC50 (µM)
// note: answer is a bare numeric in µM

Enquiry: # returns recorded IC50 (system: human leukemia REH cells) for NC(=O)NO [HU, hydroxyurea, reference compound]
Return: 32.8

* * *

# run.description: single-dose pharmacokinetic evaluation in rats
# Type: in vivo, rat
# condition.context: male, rat, plasma, other: injected, 1 mg/kg, three male rats, 1 mg/kg, plasma; read-out: terminal half-life (T1/2) (converted)
observed.property: half-life

Enquiry: Field request: half-life | item: O=C(Nc1nc(-c2ccc(O)c(O)c2)cs1)c1ccc(O)c(O)c1
Return: ~5.5 h

* * *

# run.description: single-dose pharmacokinetic evaluation in rats
# Format: in vivo, rat
# condition.context: rat, plasma, intravenous, 25 mg/kg, rats, 25 mg/kg, Avg. of triplicate; read-out: T1/2 (converted)
observed.property: half-life (h)
// note: answer is a bare numeric in h

Enquiry: Field request: half-life | item: O=C(Nc1nc(-c2ccc(O)c(O)c2)c(-c2ccccc2)s1)c1ccc(O)c(O)c1
Return: 2.67

* * *

# run.description: single-dose pharmacokinetic evaluation in rats
# Format: in vivo, rat
# condition.context: rat, plasma, intravenous, 25 mg/kg, rats, individual analysis 1-3
observed.property: clearance
Include the unit after the number when you answer.

Enquiry: Field request: clearance | item: O=C(Nc1nc(-c2ccc(O)c(O)c2)c(-c2ccccc2)s1)c1ccc(O)c(O)c1 [COH29]
Return: 114 mL/min/kg

* * *

# run.description: single-dose pharmacokinetic evaluation in rats
# Assay type: in vivo, rat
# condition.context: rat, plasma, intravenous, 25 mg/kg, rats, Avg. of triplicate
observed.property: clearance (mL/min/kg)
// note: answer is a bare numeric in mL/min/kg

Enquiry: Field request: clearance | item: O=C(Nc1nc(-c2ccc(O)c(O)c2)c(-c2ccccc2)s1)c1ccc(O)c(O)c1 [COH29]
Return: 122

* * *

# run.description: single-dose pharmacokinetic evaluation in rats
# Type: in vivo, rat
# condition.context: rat, plasma, intravenous, 25 mg/kg, rats, 25 mg/kg, Avg. of triplicate; read-out: Cmax
observed.property: Cmax (ng/mL)
// note: answer is a bare numeric in ng/mL

Enquiry: Field request: Cmax | item: O=C(Nc1nc(-c2ccc(O)c(O)c2)c(-c2ccccc2)s1)c1ccc(O)c(O)c1 [COH29]
Return: 27600

* * *

# Tested on: human leukemia MOLT-4 cells
# run.description: MTT cytotoxicity assay
# Assay type: cell-based
# condition.context: Homo sapiens, MOLT-4; Table 4; read-out: IC50 Leukemia MOLT-4
observed.property: pIC50
// returns pIC50 (minus log10 of molar concentration), number only

Enquiry: Field request: pIC50 | item: O=C(Nc1nc(-c2ccc(O)c(O)c2)c(-c2ccccc2)s1)c1ccc(O)c(O)c1
Return: 5.60

* * *

Below, each of the compounds is paired with its reported IC50 value.
# System: human prostate cancer LNCaP cells
# run.description: MTT cytotoxicity assay
# Format: cell-based
# condition.context: Homo sapiens, LNCaP; 72 hours
// note: answer is a bare numeric in µM

Enquiry: Field request: IC50 | item: NC(=S)NN=Cc1ncccc1N [Compound 3-AP, reference compound]
Return: 1.75

Enquiry: Field request: IC50 | item: O=C(Nc1nc(-c2ccc(O)c(O)c2)cs1)c1ccc(O)c(O)c1
Return: 8.49

Enquiry: Field request: IC50 | item: O=C(Nc1nc(-c2ccc(O)c(O)c2)cs1)c1ccccc1
Return: 23

* * *

# run.description: single-dose pharmacokinetic evaluation in rats
# Format: in vivo, rat
# condition.context: rat, plasma, intravenous; rats, 25 mg/kg, individual analysis 1-3
observed.property: Tmax (min)
// note: answer is a bare numeric in min

Enquiry: Field request: Tmax | item: O=C(Nc1nc(-c2ccc(O)c(O)c2)c(-c2ccccc2)s1)c1ccc(O)c(O)c1 [COH29]
Return: 1.8

* * *

# run.description: single-dose pharmacokinetic evaluation in rats
# Format: in vivo, rat
# condition.context: rat, plasma, intravenous, 25 mg/kg, rats, 25 mg/kg, Avg. of triplicate; read-out: Vss
# Protocol: COH20 was injected into three male rats at 1 mg/kg for single-dose pharmacokinetic evaluation. […] More detailed pharmacokinetic studies will be performed with various dosages of COH20 to establish parameters such as clearance, bioavailability, and tissue/plasma partition coefficients. Pharmacokinetic evaluation was performed on COH29 using the same techniques, with COH29 administered at a dosage of 25 mg/kg.
observed.property: Vd (L/kg)
// note: answer is a bare numeric in L/kg

Enquiry: Field request: Vd | item: O=C(Nc1nc(-c2ccc(O)c(O)c2)c(-c2ccccc2)s1)c1ccc(O)c(O)c1
Return: 0.804

* * *

# assayed.target: recombinant RRM1/RRM2 complex (Homo sapiens (Human), UniProt P31350)
# Sequence (P31350 whole entry, one chain of several): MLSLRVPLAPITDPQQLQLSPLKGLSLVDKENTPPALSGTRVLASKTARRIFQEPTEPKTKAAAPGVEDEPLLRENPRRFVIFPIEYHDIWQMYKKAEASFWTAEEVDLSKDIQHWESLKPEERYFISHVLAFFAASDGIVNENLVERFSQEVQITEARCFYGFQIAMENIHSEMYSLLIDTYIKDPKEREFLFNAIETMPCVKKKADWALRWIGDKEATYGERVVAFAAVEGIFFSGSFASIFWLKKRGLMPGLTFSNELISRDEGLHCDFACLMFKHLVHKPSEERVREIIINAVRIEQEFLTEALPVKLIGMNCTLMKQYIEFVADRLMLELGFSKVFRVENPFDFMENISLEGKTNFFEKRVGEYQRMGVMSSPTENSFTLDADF
# run.description: in vitro holoenzyme-based RR assay, [3H]CDP reduction by HPLC
# Type: biochemical
# condition.context: RR activity, Table 1; read-out: IC50 ± S.D.
observed.property: pIC50
// returns pIC50 (minus log10 of molar concentration), number only

Solved cases below.
compound	pIC50
O=C(Nc1nc(-c2ccc(O)c(O)c2)cs1)c1ccccc1	4.82
NC(=O)NO [HU, hydroxyurea, reference compound]	3.83
NC(=S)NN=Cc1ncccc1N [Compound 3-AP, reference compound]	5.92

Enquiry: # returns recorded pIC50 (system: recombinant RRM1/RRM2 complex (Homo sapiens (Human), UniProt P31350)) for O=C(Nc1nc(-c2ccc(O)c(O)c2)cs1)c1ccc(O)c(O)c1
Return: 5.03
